For each of the compounds below, state its IC50.
- Target Desc: UniProtKB O60674
- Sequence (O60674 whole entry): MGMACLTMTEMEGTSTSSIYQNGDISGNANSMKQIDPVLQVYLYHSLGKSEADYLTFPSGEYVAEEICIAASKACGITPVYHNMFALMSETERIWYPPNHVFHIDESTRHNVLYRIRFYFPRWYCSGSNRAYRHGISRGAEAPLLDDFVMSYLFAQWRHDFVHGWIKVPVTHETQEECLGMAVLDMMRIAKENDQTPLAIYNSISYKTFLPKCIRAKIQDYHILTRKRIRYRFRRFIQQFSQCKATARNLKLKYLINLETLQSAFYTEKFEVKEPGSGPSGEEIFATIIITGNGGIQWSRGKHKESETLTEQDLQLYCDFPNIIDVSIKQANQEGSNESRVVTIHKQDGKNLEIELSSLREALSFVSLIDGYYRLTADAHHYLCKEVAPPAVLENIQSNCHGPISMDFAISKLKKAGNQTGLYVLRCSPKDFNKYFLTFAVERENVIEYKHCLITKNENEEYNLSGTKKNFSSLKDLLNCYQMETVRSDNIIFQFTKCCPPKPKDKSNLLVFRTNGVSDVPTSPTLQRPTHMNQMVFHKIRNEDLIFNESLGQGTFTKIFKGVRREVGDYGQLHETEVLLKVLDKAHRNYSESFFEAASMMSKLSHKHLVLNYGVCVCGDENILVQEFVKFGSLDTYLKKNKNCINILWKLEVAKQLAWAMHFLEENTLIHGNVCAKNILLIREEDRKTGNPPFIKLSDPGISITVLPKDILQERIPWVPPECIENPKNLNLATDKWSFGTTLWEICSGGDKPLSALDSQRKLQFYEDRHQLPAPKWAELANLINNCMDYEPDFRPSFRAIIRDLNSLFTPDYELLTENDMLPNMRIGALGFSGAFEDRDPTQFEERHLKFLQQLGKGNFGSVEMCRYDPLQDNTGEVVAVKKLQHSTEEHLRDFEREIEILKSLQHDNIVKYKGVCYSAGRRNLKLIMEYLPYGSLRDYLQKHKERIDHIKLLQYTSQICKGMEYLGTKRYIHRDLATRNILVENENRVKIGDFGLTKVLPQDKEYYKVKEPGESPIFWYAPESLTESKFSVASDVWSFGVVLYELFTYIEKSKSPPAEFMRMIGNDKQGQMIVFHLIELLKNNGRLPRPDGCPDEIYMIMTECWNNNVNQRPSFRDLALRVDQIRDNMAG
- Protocol Details: hJAK2 LANCE TR-FRET enzymatic assay
- Type: biochemical
- Test Settings: read-out: JAK2 IC50
Give the number; nM is assumed, so skip it.

Qu. Given `N#Cc1cc(-c2ncnc(Nc3ccc(N4CCN(C5COC5)CC4)cc3)n2)ccc1O[C@H]1CCN(C(=O)[C@@H]2CNC(=O)C2)C[C@H]1F` , report its IC50 on UniProtKB O60674.
Ans. 353

Qu. Given CN1CC(Oc2ccc(-c3ncnc(Nc4ccc(N5CCN(C6COC6)CC5)cc4)n3)cc2C#N)CCC1=O (stereo not drawn) , report its IC50 on UniProtKB O60674.
Ans. 849

Qu. Given `CC(=O)N1CC[C@H](Oc2ccc(-c3ncnc(Nc4ccc(N5CCO[C@@H](CO)C5)cc4)n3)cc2C#N)C(F)(F)C1` , report its IC50 on UniProtKB O60674.
Ans. 233

Qu. Given `C[C@@H](CO)C(=O)N1CC[C@H](Oc2ccc(-c3ncnc(Nc4ccc(N5CCN(C6COC6)CC5)cc4)n3)cc2C#N)[C@H](F)C1` , report its IC50 on UniProtKB O60674.
Ans. 546

Qu. Given N#Cc1cc(-c2ncnc(Nc3ccc(N4CCN(C5COC5)CC4)cc3)n2)ccc1O[C@H]1CCN(C(=O)CO)CC1(F)F (single isomer, unassigned) , report its IC50 on UniProtKB O60674.
Ans. 75
